Reported Viscosity (Centipoise) values follow for various compounds
# assay.name: Viscosity Enhancement/Foam Stabilization (Brookfield Digital Viscometer)
# assay.context: 4.0% thickener, 22° C.

# compound, units, Viscosity (Centipoise)
rows = [
    ("CCCCCCCCCCCC(=O)N(CCO)CCO [Lauramide DEA, lauric diethanolamide, reference compound]", "Centipoise", 2376),
    ("CCCCCCCCCCCCN(C[C@H](O)[C@@H](O)[C@H](O)[C@H](O)CO)C(N)=O [N-Dodecyl D-Glucourea]", "Centipoise", 2295),
    ("CCCCCCCCCCCCN1C[C@H](O)[C@H]([C@H](O)[C@H](O)CO)OC1=O [N-Dodecyl D-Glucocarbamate]", "Centipoise", 2176),
    ("O=C[C@H](O)[C@@H](O)[C@H](O)[C@H](O)CO [D-Glucose, D-glucose, reference compound]", "Centipoise", 27),
]

###

# assay.name: Surface Tension Reduction
# Assay type: physicochemical
# assay.context: 40° C.

# molecule, Surface tension reduction (γ) at 40° C.
rows = [
    ("CCCCCCCCCCCCN(C[C@H](O)[C@@H](O)[C@H](O)[C@H](O)CO)C(N)=O", "Yes"),
    ("CCCCCCCCCCCCCCCCN1C[C@H](O)[C@H]([C@H](O)[C@H](O)CO)OC1=O [N-Hexadecyl D-Glucocarbamate]", "No"),
    ("CCCCCCCCCCCCCCCCCCN1C[C@H](O)[C@H]([C@H](O)[C@H](O)CO)OC1=O [N-Octadecyl D-Glucocarbamate]", "No"),
    ("CCCCCCCCN1C[C@H](O)[C@H]([C@H](O)[C@H](O)CO)OC1=O [N-Octyl D-Glucocarbamate]", "Yes"),
    ("CCCCCCCCCCN1C[C@H](O)[C@H]([C@H](O)[C@H](O)CO)OC1=O [N-Decyl D-Glucocarbamate]", "Yes"),
    ("CCCCCCCCCCCCCCCCN(C[C@H](O)[C@@H](O)[C@H](O)[C@H](O)CO)C(N)=O", "No"),
    ("CCCCCCCCCCCCN1C[C@H](O)[C@H]([C@H](O[C@H]2O[C@H](CO)[C@@H](O)[C@H](O)[C@H]2O)[C@H](O)CO)OC1=O [N-Dodecyl D-Maltocarbamate]", "Yes"),
    ("CCCCCCCCCCCCN1C[C@H](O)[C@H]([C@H](O)[C@H](O)CO)OC1=O [N-Dodecyl D-Glucocarbamate]", "Yes"),
    ("CCCCCCCCCCN(C[C@H](O)[C@@H](O)[C@H](O)[C@H](O)CO)C(N)=O", "Yes"),
]

###

# assay.name: Water Solubility and Krafft Point (0.1% solution in water, 40° C.)
# assay.context: 40° C.

# compound, H2O Solubility at 40° C.
measured = [
    ("CCCCCCCCN1C[C@H](O)[C@H]([C@H](O)[C@H](O)CO)OC1=O [N-Octyl D-Glucocarbamate]", "Yes"),
    ("CCCCCCCCCCCCCCCCN(C[C@H](O)[C@@H](O)[C@H](O)[C@H](O)CO)C(N)=O [N-Hexadecyl D-Glucourea]", "No"),
    ("CCCCCCCCCCN(C[C@H](O)[C@@H](O)[C@H](O)[C@H](O)CO)C(N)=O [N-Decyl D-Glucourea]", "Yes"),
    ("CCCCCCCCCCCCN1C[C@H](O)[C@H]([C@H](O)[C@H](O)CO)OC1=O [N-Dodecyl D-Glucocarbamate]", "Yes"),
    ("CCCCCCCCCCCCCCCCCCN1C[C@H](O)[C@H]([C@H](O)[C@H](O)CO)OC1=O [N-Octadecyl D-Glucocarbamate]", "No"),
    ("CCCCCCCCCCCCN(C[C@H](O)[C@@H](O)[C@H](O)[C@H](O)CO)C(N)=O [N-Dodecyl D-Glucourea]", "Yes"),
    ("CCCCCCCCCCCCN1C[C@H](O)[C@H]([C@H](O[C@H]2O[C@H](CO)[C@@H](O)[C@H](O)[C@H]2O)[C@H](O)CO)OC1=O [N-Dodecyl D-Maltocarbamate]", "Yes"),
    ("CCCCCCCCCCN1C[C@H](O)[C@H]([C@H](O)[C@H](O)CO)OC1=O [N-Decyl D-Glucocarbamate]", "Yes"),
    ("CCCCCCCCCCCCCCCCN1C[C@H](O)[C@H]([C@H](O)[C@H](O)CO)OC1=O [N-Hexadecyl D-Glucocarbamate]", "No"),
]

###

# assay.name: Water Solubility and Krafft Point (0.1% solution in water, 40° C.)
# assay.context: 40° C.

# compound, Krafft point (Tk)
measured = [
    ("CCCCCCCCCCN(C[C@H](O)[C@@H](O)[C@H](O)[C@H](O)CO)C(N)=O", "Below Tk"),
    ("CCCCCCCCN1C[C@H](O)[C@H]([C@H](O)[C@H](O)CO)OC1=O [N-Octyl D-Glucocarbamate]", "Below Tk"),
    ("CCCCCCCCCCN1C[C@H](O)[C@H]([C@H](O)[C@H](O)CO)OC1=O [N-Decyl D-Glucocarbamate]", "Below Tk"),
    ("CCCCCCCCCCCCN1C[C@H](O)[C@H]([C@H](O)[C@H](O)CO)OC1=O [N-Dodecyl D-Glucocarbamate]", "Below Tk"),
    ("CCCCCCCCCCCCCCCCN(C[C@H](O)[C@@H](O)[C@H](O)[C@H](O)CO)C(N)=O", "Above Tk"),
    ("CCCCCCCCCCCCN(C[C@H](O)[C@@H](O)[C@H](O)[C@H](O)CO)C(N)=O", "Below Tk"),
    ("CCCCCCCCCCCCCCCCN1C[C@H](O)[C@H]([C@H](O)[C@H](O)CO)OC1=O [N-Hexadecyl D-Glucocarbamate]", "Above Tk"),
    ("CCCCCCCCCCCCN1C[C@H](O)[C@H]([C@H](O[C@H]2O[C@H](CO)[C@@H](O)[C@H](O)[C@H]2O)[C@H](O)CO)OC1=O [N-Dodecyl D-Maltocarbamate]", "Below Tk"),
    ("CCCCCCCCCCCCCCCCCCN1C[C@H](O)[C@H]([C@H](O)[C@H](O)CO)OC1=O [N-Octadecyl D-Glucocarbamate]", "Above Tk"),
]

###

# assay.name: Viscosity Enhancement/Foam Stabilization (Brookfield Digital Viscometer)
# assay.context: 4.0% thickener
recorded.endpoint: Foam Stability

# compound, obs.value
records = [
    ("CCCCCCCCCCCC(=O)N(CCO)CCO [Lauramide DEA, lauric diethanolamide, reference compound]", "Yes"),
    ("CCCCCCCCCCCCN(C[C@H](O)[C@@H](O)[C@H](O)[C@H](O)CO)C(N)=O", "Yes"),
    ("O=C[C@H](O)[C@@H](O)[C@H](O)[C@H](O)CO [D-Glucose, D-glucose, reference compound]", "No"),
    ("CCCCCCCCCCCCN1C[C@H](O)[C@H]([C@H](O)[C@H](O)CO)OC1=O [N-Dodecyl D-Glucocarbamate]", "Yes"),
]

###

# assay.name: Critical Micelle Concentration (micelle formation)
# Type: physicochemical
# assay.context: 40° C.
recorded.endpoint: CMC at 40° C. (micelle formation)

# compound, recorded.endpoint, obs.value
rows = [
    ("CCCCCCCCCCCCN(C[C@H](O)[C@@H](O)[C@H](O)[C@H](O)CO)C(N)=O", "CMC at 40° C. (micelle formation)", "Yes"),
    ("CCCCCCCCCCCCCCCCN(C[C@H](O)[C@@H](O)[C@H](O)[C@H](O)CO)C(N)=O", "CMC at 40° C. (micelle formation)", "No"),
    ("CCCCCCCCCCCCCCCCCCN1C[C@H](O)[C@H]([C@H](O)[C@H](O)CO)OC1=O [N-Octadecyl D-Glucocarbamate]", "CMC at 40° C. (micelle formation)", "No"),
    ("CCCCCCCCCCN(C[C@H](O)[C@@H](O)[C@H](O)[C@H](O)CO)C(N)=O", "CMC at 40° C. (micelle formation)", "Yes"),
    ("CCCCCCCCCCCCN1C[C@H](O)[C@H]([C@H](O[C@H]2O[C@H](CO)[C@@H](O)[C@H](O)[C@H]2O)[C@H](O)CO)OC1=O [N-Dodecyl D-Maltocarbamate]", "CMC at 40° C. (micelle formation)", "Yes"),
    ("CCCCCCCCCCN1C[C@H](O)[C@H]([C@H](O)[C@H](O)CO)OC1=O [N-Decyl D-Glucocarbamate]", "CMC at 40° C. (micelle formation)", "Yes"),
    ("CCCCCCCCN1C[C@H](O)[C@H]([C@H](O)[C@H](O)CO)OC1=O [N-Octyl D-Glucocarbamate]", "CMC at 40° C. (micelle formation)", "Yes"),
    ("CCCCCCCCCCCCN1C[C@H](O)[C@H]([C@H](O)[C@H](O)CO)OC1=O [N-Dodecyl D-Glucocarbamate]", "CMC at 40° C. (micelle formation)", "Yes"),
    ("CCCCCCCCCCCCCCCCN1C[C@H](O)[C@H]([C@H](O)[C@H](O)CO)OC1=O [N-Hexadecyl D-Glucocarbamate]", "CMC at 40° C. (micelle formation)", "No"),
]
